Subject Of Test: UniProt:O60885
Protocol Text: TR-FRET bromodomain binding assay, BRD4 first bromodomain (BDI)
Study Conditions: mean Ki; 12 nM His tagged BRD4 (BDI_K57-E168), 100 nM Alexa647 probe; Ki calculated from IC50, probe Kd and probe concentration
pKi: −log10 of the molar value.
Assay Metric: pKi

Compound | Relation | Reported Value
COc1ccc(NC(=O)c2cc3c([C@@H]4C[C@@]45C(=O)N(C)c4ccccc45)cn(C)c(=O)c3[nH]2)cc1 (racemic) | = | 5.33
CN1C(=O)[C@]2(C[C@@H]2c2cn(C)c(=O)c3[nH]c(-c4cnn(C)c4)cc23)c2ccccc21 | = | 6.36
CN1C(=O)[C@]2(C[C@@H]2c2cn(C)c(=O)c3[nH]c(-c4cccnc4)cc23)c2ccccc21 | = | 5.85
Cn1cc(C2CC23C(=O)N(CC(F)(F)F)c2ccccc23)c2cc(C(=O)NC3CC3)[nH]c2c1=O (racemic) | < | 4.89
CN1C(=O)[C@@]2(C[C@H]2c2cn(C)c(=O)c3[nH]c(-c4ccnc(C(F)(F)F)c4)cc23)c2ccccc21 (racemic) [Example 51] | = | 5.33
CN1C(=O)[C@@]2(C[C@H]2c2cn(C)c(=O)c3[nH]c(-c4ccncc4)cc23)c2ccccc21 (racemic) | = | 5.89
CN1C(=O)[C@@]2(C[C@H]2c2cn(C)c(=O)c3[nH]c(-c4ccnnc4)cc23)c2ccccc21 (racemic) | = | 5.56
CN1C(=O)[C@@]2(C[C@H]2c2cn(C)c(=O)c3[nH]c(-c4cncnc4)cc23)c2ccccc21 (racemic) | = | 5.97
CN1C(=O)[C@@]2(C[C@H]2c2cn(C)c(=O)c3[nH]c(-c4cn(C)cn4)cc23)c2ccccc21 (racemic) | = | 5.74
CN1C(=O)[C@@]2(C[C@H]2c2cn(C)c(=O)c3[nH]c(C(=O)NC4CC4)cc23)c2cc(F)ccc21 (single isomer, unassigned) [Example 18] | < | 4.89
CN1C(=O)[C@@]2(C[C@H]2c2cn(C)c(=O)c3[nH]c(C4CC4)cc23)c2ccccc21 (racemic) | = | 6.09
Cc1cc(-c2cc3c([C@H]4C[C@@]45C(=O)N(C)c4ccccc45)cn(C)c(=O)c3[nH]2)on1 (racemic) | < | 4.89
Cn1cc([C@@H]2C[C@@]23C(=O)N(CC(F)(F)F)c2ccccc23)c2cc(C(=O)NC3CC3)[nH]c2c1=O | < | 4.89
